- system name: BAF3-KIF5B-RET cells (Homo sapiens)
- Construct: fused on or other part: P33176 (Kinesin-1 heavy chain)
- Sequence (P07949 whole entry, change not shown, the tested form may be a part): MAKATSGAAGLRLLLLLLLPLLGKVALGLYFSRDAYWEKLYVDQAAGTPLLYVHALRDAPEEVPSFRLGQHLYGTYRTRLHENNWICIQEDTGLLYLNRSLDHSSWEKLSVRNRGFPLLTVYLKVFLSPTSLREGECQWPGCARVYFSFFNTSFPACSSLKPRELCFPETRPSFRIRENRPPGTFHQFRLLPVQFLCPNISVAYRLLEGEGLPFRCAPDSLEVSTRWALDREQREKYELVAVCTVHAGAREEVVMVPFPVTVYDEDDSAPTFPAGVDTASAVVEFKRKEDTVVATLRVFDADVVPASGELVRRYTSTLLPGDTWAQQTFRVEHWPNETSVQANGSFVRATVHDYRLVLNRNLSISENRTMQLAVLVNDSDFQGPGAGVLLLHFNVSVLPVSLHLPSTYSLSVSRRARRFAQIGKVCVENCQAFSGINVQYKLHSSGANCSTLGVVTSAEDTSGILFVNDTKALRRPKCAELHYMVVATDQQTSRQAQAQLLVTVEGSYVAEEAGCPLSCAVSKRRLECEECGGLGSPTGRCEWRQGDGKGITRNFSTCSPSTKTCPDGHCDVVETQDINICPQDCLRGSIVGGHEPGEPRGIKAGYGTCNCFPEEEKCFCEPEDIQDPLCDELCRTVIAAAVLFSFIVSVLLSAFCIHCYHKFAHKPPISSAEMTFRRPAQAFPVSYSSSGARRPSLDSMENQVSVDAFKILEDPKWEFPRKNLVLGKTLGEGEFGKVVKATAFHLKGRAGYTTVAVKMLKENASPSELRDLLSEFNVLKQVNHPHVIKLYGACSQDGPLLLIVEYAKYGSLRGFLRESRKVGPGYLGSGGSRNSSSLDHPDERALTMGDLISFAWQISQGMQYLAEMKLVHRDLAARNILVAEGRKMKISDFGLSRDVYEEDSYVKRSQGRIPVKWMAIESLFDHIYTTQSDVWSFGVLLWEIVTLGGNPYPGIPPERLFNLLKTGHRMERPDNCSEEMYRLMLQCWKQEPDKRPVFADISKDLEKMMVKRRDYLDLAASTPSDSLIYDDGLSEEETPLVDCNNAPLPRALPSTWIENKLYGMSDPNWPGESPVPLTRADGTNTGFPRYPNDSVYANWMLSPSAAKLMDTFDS
- assay protocol: BAF3-KIF5B-RET Cell proliferation assay (CellTiter-Glo, 72 hours)
- Assay type: cell-based
- measurement parameters: growth inhibition, read-out: BA/F3-KIF5B-RET Cellular activity
assay readout: GI50

mol=COc1ccc(C(=O)NC23CC4CC(C2)N(c2ccc(-c5cc(-c6cnn(C)c6)cn6ncc(C#N)c56)cn2)C(C4)C3)cn1 observed_result="≤ 0.01 µM"
mol=COc1cncc(C(=O)NC[C@@H]2[C@H]3CN(c4ccc(-c5cc(-c6cnn(C)c6)cn6ncc(C#N)c56)cn4)C[C@@H]23)c1 observed_result="0.01 to 0.05 µM"
mol=Cn1ccc(-c2cc(-c3ccc(N4C[C@@H]5C[C@@](C)(NC(=O)c6ncccc6Cl)C[C@@H]5C4)nc3)c3c(C#N)cnn3c2)n1 observed_result="≤ 0.01 µM"
mol=CC(=O)NC12CC3CC(C1)N(c1cnc(-c4cc(-c5cnn(C)c5)cn5ncc(C#N)c45)cn1)C(C3)C2 observed_result="≤ 0.01 µM"
mol=COc1ccc(NC(=O)C23CC4CC(C2)N(c2cnc(-c5cc(OCC(C)(C)O)cn6ncc(C#N)c56)cn2)C(C4)C3)cn1 observed_result="0.01 to 0.05 µM"
mol=CC(C)(O)COc1cc(-c2ccc(N3C[C@@H]4C[C@@](C)(NC(=O)c5ncccc5Cl)C[C@@H]4C3)nc2)c2c(C#N)cnn2c1 observed_result="0.01 to 0.05 µM"
mol=Cn1cc(-c2cc(-c3ccc(N4C5CC6CC4CC(N)(C6)C5)nc3)c3c(C#N)cnn3c2)cn1 observed_result="0.01 to 0.05 µM"
mol=Cn1cc(-c2cc(-c3ccc(N4C[C@@H]5[C@@H](CNC(=O)c6ncccc6Cl)[C@@H]5C4)nc3)c3c(C#N)cnn3c2)cn1 observed_result="≤ 0.01 µM"
mol=Cn1cc(-c2cc(-c3ccc(N4C[C@@H]5[C@H](C4)[C@H]5NC(=O)c4ncccc4Cl)nc3)c3c(C#N)cnn3c2)cn1 observed_result="0.01 to 0.05 µM"
mol=CC(C)(O)COc1cc(-c2ccc(N3C4CC5CC3CC(NC(=O)c3ncccc3F)(C5)C4)nc2)c2c(C#N)cnn2c1 observed_result="≤ 0.01 µM"
mol=COc1ccc(C(=O)N[C@@H]2C[C@@H]3CN(c4cnc(-c5cc(OCC(C)(C)O)cn6ncc(C#N)c56)cn4)C[C@@H]3C2)cn1 observed_result="> 0.1 µM"
mol=Cn1cc(-c2cc(-c3ccc(N4C[C@@H]5[C@@H](CNC(=O)c6ccnc(C(F)(F)F)c6)[C@@H]5C4)nc3)c3c(C#N)cnn3c2)cn1 observed_result="0.05 to 0.1 µM"
mol=COc1cccnc1C(=O)N[C@]1(C)C[C@H]2CN(c3cnc(-c4cc(-c5cnn(C)c5)cn5ncc(C#N)c45)cn3)C[C@H]2C1 observed_result="≤ 0.01 µM"
mol=Cn1cc(-c2cc(-c3ccc(N4C[C@H]5CN(C(=O)c6c(F)cccc6Cl)C[C@H]5C4)nc3)c3c(C#N)cnn3c2)cn1 observed_result="≤ 0.01 µM"
mol=CC(C)(O)COc1cc(-c2ccc(N3C[C@@H]4C[C@@](C)(NC(=O)c5c(F)cccc5Cl)C[C@@H]4C3)nc2)c2c(C#N)cnn2c1 observed_result="≤ 0.01 µM"
mol=CC(C)(O)COc1cc(-c2cnc(N3C4CC5CC3CC(N)(C5)C4)cn2)c2c(C#N)cnn2c1 observed_result="> 0.1 µM"
mol=COc1ccc(C(=O)N[C@@H]2C[C@@H]3CN(c4ccc(-c5cc(OCC(C)(C)O)cn6ncc(C#N)c56)cn4)C[C@@H]3C2)cn1 observed_result="0.01 to 0.05 µM"
mol=COc1ccc(C(=O)NC[C@@H]2[C@H]3CN(c4cnc(-c5cc(OCC(C)(C)O)cn6ncc(C#N)c56)cn4)C[C@@H]23)cn1 observed_result="> 0.1 µM"
mol=Cn1cc(-c2cc(-c3ccc(N4C[C@H]5CN(C(=O)c6ncccc6Cl)C[C@H]5C4)nc3)c3c(C#N)cnn3c2)cn1 observed_result="≤ 0.01 µM"
mol=CC(C)(O)COc1cc(-c2cnc(N3C[C@@H]4[C@@H](CNC(=O)c5ncccc5Cl)[C@@H]4C3)cn2)c2c(C#N)cnn2c1 observed_result="0.01 to 0.05 µM"
mol=Cn1cc(-c2cc(-c3ccc(N4C[C@@H]5C[C@](C)(NC(=O)c6ncccc6Cl)C[C@@H]5C4)nc3)c3c(C#N)cnn3c2)cn1 observed_result="≤ 0.01 µM"
mol=CC(C)(O)COc1cc(-c2ccc(N3C[C@@H]4[C@H](C3)[C@H]4C(C)(C)NC(=O)c3ncccc3Cl)nc2)c2c(C#N)cnn2c1 observed_result="0.05 to 0.1 µM"
mol=COc1ccc(C(=O)NC23CC4CC(C2)N(c2cnc(-c5cc(-c6cnn(C)c6)cn6ncc(C#N)c56)cn2)C(C4)C3)cn1 observed_result="≤ 0.01 µM"
mol=CC(C)(O)COc1cc(-c2ccc(N3C[C@H]4CN(C(=O)c5c(F)cccc5Cl)C[C@H]4C3)nc2)c2c(C#N)cnn2c1 observed_result="0.01 to 0.05 µM"

---

Here, each record is paired with measured IC50 data.
- system name: human RET kinase (Homo sapiens)
- Sequence (P07949 29-1114): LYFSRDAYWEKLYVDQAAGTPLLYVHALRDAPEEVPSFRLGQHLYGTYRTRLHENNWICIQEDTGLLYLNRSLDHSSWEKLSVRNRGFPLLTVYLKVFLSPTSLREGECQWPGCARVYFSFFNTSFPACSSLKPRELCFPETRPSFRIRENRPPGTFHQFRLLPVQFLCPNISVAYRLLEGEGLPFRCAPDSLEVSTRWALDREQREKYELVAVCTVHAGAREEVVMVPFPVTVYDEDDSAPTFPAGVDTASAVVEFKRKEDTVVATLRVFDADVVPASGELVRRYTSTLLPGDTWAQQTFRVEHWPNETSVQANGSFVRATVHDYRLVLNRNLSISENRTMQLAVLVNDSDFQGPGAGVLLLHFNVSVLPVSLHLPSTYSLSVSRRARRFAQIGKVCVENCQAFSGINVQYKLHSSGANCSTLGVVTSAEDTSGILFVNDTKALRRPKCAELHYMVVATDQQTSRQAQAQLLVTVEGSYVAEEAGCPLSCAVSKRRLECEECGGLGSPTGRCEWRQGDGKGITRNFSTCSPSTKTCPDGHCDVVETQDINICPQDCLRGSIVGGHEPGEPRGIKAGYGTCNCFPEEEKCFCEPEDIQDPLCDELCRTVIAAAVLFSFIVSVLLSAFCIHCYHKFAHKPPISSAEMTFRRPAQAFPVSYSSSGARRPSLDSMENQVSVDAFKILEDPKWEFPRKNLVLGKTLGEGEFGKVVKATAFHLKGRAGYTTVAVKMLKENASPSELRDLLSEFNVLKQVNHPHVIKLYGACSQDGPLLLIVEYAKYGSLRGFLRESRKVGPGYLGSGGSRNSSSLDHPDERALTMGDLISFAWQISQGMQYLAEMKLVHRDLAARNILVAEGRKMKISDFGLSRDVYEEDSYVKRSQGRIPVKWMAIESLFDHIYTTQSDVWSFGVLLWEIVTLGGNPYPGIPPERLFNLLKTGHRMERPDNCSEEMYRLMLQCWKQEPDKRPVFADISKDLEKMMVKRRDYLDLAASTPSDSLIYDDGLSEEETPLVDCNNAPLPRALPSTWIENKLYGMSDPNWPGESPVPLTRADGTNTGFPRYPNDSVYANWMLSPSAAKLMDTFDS
assay readout: IC50

mol=COc1ccc(C(=O)N[C@@H]2C[C@@H]3CN(c4cnc(-c5cc(OCC(C)(C)O)cn6ncc(C#N)c56)cn4)C[C@@H]3C2)cn1 observed_result="50 to 100 nM"
mol=Cn1cc(-c2cc(-c3cnc(N4C[C@@H]5C[C@@](C)(NC(=O)c6ccnc(C(F)(F)F)c6)C[C@@H]5C4)cn3)c3c(C#N)cnn3c2)cn1 observed_result="≤ 10 nM"
mol=COc1ccc(CN[C@]2(C)C[C@H]3CN(c4ccc(-c5cc(-c6cnn(C)c6)cn6ncc(C#N)c56)cn4)C[C@H]3C2)cn1 observed_result="≤ 10 nM"
mol=Cn1cc(-c2cc(-c3ccc(N4C5CC6CC4CC(NC(=O)c4ncccc4Cl)(C6)C5)nc3)c3c(C#N)cnn3c2)cn1 observed_result="≤ 10 nM"
mol=COc1cccc(C(=O)NC[C@@H]2[C@H]3CN(c4ccc(-c5cc(-c6cnn(C)c6)cn6ncc(C#N)c56)cn4)C[C@@H]23)n1 observed_result="≤ 10 nM"
mol=COc1cccc(C(=O)N[C@]2(C)C[C@H]3CN(c4cnc(-c5cc(-c6cnn(C)c6)cn6ncc(C#N)c56)cn4)C[C@H]3C2)n1 observed_result="≤ 10 nM"

---

- system name: human KDR kinase (Homo sapiens)
- Sequence (P35968 20-1356): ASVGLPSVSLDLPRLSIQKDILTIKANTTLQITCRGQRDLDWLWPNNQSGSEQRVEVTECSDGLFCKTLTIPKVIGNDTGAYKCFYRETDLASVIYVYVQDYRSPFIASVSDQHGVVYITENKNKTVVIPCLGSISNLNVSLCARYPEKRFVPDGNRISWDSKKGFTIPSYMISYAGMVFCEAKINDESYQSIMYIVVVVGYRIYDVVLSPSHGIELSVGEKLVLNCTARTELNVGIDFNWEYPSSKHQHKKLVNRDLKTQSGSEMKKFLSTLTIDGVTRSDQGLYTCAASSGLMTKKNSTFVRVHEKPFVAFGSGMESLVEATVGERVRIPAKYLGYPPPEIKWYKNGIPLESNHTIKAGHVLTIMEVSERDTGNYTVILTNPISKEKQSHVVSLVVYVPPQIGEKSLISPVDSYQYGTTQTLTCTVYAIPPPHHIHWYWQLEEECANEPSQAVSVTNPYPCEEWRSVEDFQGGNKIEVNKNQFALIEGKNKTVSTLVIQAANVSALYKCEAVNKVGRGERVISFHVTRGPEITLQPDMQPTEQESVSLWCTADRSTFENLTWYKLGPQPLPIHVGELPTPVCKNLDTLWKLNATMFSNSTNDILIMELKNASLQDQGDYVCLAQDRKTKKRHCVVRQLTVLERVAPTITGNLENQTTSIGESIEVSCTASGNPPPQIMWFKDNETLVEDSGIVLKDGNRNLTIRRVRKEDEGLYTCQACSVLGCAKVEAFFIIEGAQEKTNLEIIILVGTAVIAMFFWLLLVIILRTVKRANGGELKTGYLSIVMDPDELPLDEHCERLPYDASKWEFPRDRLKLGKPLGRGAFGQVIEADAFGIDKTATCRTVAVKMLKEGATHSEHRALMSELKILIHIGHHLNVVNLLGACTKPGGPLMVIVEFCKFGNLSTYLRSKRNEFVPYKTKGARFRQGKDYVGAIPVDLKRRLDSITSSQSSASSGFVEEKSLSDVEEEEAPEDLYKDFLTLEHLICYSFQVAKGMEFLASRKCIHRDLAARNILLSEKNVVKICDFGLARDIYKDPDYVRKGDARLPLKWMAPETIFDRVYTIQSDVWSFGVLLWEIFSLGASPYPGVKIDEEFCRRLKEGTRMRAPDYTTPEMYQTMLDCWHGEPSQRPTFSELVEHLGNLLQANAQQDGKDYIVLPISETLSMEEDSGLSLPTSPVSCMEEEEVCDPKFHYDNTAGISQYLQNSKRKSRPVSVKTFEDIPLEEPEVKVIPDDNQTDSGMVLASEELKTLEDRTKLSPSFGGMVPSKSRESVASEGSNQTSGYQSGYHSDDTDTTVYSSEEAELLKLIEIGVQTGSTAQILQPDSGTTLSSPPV
assay readout: IC50

compound=COc1ccc(CN2C[C@@H]3CN(c4ccc(-c5cc(-c6cnn(C)c6)cn6ncc(C#N)c56)cn4)C[C@@H]3C2)cn1 observed_result="10 to 50 nM"
compound=Cn1cc(-c2cc(-c3cnc(N4C[C@@H]5[C@@H](CNC(=O)c6ncccc6Cl)[C@@H]5C4)cn3)c3c(C#N)cnn3c2)cn1 observed_result="10 to 50 nM"
compound=Cn1ccc(-c2cc(-c3cnc(N4C[C@@H]5C[C@@](C)(NC(=O)c6c(F)cccc6Cl)C[C@@H]5C4)cn3)c3c(C#N)cnn3c2)n1 observed_result="10 to 50 nM"
compound=Cn1cc(-c2cc(-c3ccc(N4C[C@H]5CN(C(=O)c6ncccc6Cl)C[C@H]5C4)nc3)c3c(C#N)cnn3c2)cn1 observed_result="10 to 50 nM"
compound=Cn1cc(-c2cc(-c3ccc(N4C[C@@H]5C[C@@](C)(NC(=O)c6ncccc6F)C[C@@H]5C4)nc3)c3c(C#N)cnn3c2)cn1 observed_result="≤ 10 nM"
compound=CCOc1cc(-c2ccc(N3C[C@@H]4C[C@@](C)(NC(=O)c5cc(F)ccc5Cl)C[C@@H]4C3)nc2)c2c(C#N)cnn2c1 observed_result="50 to 100 nM"
compound=CC(C)(O)COc1cc(-c2ccc(N3C[C@@H]4C[C@@](C)(NC(=O)c5ncccc5F)C[C@@H]4C3)nc2)c2c(C#N)cnn2c1 observed_result="10 to 50 nM"
compound=COc1ccc(NC(=O)N[C@H]2[C@@H]3CN(c4ccc(-c5cc(-c6cnn(C)c6)cn6ncc(C#N)c56)cn4)C[C@@H]32)cn1 observed_result="≤ 10 nM"
compound=Cn1cc(-c2cc(-c3cnc(N4C[C@@H]5[C@H](C4)[C@H]5NC(=O)c4ncccc4Cl)cn3)c3c(C#N)cnn3c2)cn1 observed_result="50 to 100 nM"
compound=COc1ccc(CN(C)[C@H]2[C@@H]3CN(c4ccc(-c5cc(-c6cnn(C)c6)cn6ncc(C#N)c56)cn4)C[C@@H]32)cn1 observed_result="10 to 50 nM"
compound=Cn1cc(-c2cc(-c3ccc(N4C[C@@H]5[C@@H](CNC(=O)c6c(F)cccc6Cl)[C@@H]5C4)nc3)c3c(C#N)cnn3c2)cn1 observed_result="≤ 10 nM"
compound=CC(C)(O)COc1cc(-c2ccc(N3C[C@@H]4[C@H](C3)[C@H]4NC(=O)c3ncccc3Cl)nc2)c2c(C#N)cnn2c1 observed_result="> 100 nM"
compound=Cc1ccc(Cl)c(C(=O)NC[C@@H]2[C@H]3CN(c4ccc(-c5cc(-c6cnn(C)c6)cn6ncc(C#N)c56)cn4)C[C@@H]23)n1 observed_result="≤ 10 nM"
compound=COc1ccc(C(=O)N[C@H]2[C@@H]3CN(c4ccc(-c5cc(-c6cnn(C)c6)cn6ncc(C#N)c56)cc4)C[C@@H]32)cn1 observed_result="50 to 100 nM"
compound=Cn1cc(-c2cc(-c3ccc(N4C[C@@H]5[C@H](C4)[C@H]5NC(=O)c4ncccc4C(F)(F)F)nc3)c3c(C#N)cnn3c2)cn1 observed_result="≤ 10 nM"
compound=Cn1cc(-c2cc(-c3ccc(N4C[C@@H]5[C@H](C4)[C@H]5NC(=O)[C@H](O)c4ccccc4)nc3)c3c(C#N)cnn3c2)cn1 observed_result="10 to 50 nM"
compound=CC(C)(O)COc1cc(-c2ccc(N3C4CC5CC3CC(NC(=O)c3ncccc3F)(C5)C4)nc2)c2c(C#N)cnn2c1 observed_result="50 to 100 nM"
compound=Cn1cc(-c2cc(-c3cnc(N4C[C@@H]5C[C@@](C)(NC(=O)c6c(F)cccc6Cl)C[C@@H]5C4)cn3)c3c(C#N)cnn3c2)cn1 observed_result="≤ 10 nM"
compound="C[C@@]1(NC(=O)c2ncccc2Cl)C[C@H]2CN(c3ccc(-c4cc(OCC5CNCCO5)cn5ncc(C#N)c45)cn3)C[C@H]2C1 (stereo partly drawn)" observed_result="10 to 50 nM"
compound=Cn1cc(-c2cc(-c3ccc(N4C[C@@H]5[C@H](C4)[C@H]5NC(=O)c4ncccc4Cl)nc3)c3c(C#N)cnn3c2)cn1 observed_result="10 to 50 nM"
compound="CC(C)C(O)C(=O)NC[C@@H]1[C@H]2CN(c3ccc(-c4cc(-c5cnn(C)c5)cn5ncc(C#N)c45)cn3)C[C@@H]12 (stereo partly drawn)" observed_result="10 to 50 nM"
compound=CCOc1cc(-c2ccc(N3C[C@@H]4C[C@@](C)(NC(=O)c5c(C)cccc5Cl)C[C@@H]4C3)nc2)c2c(C#N)cnn2c1 observed_result="50 to 100 nM"
compound=CC(=O)NC12CC3CC(C1)N(c1ccc(-c4cc(OCC(C)(C)O)cn5ncc(C#N)c45)cn1)C(C3)C2 observed_result="> 100 nM"
compound=COc1ccc(CN2C[C@@H]3CN(c4ccc(-c5cc(-c6ccn(C)n6)cn6ncc(C#N)c56)cn4)C[C@@H]3C2)cn1 observed_result="10 to 50 nM"
